Target: T1, 重组人IL-11 (recombinant human interleukin-11) (human, UniProt P20809 22-199)
T1 construct: Called recombinant human IL-11 as immunogen; the assays say only IL-11; also called IL-11抗原; IL-11-Biotin
T1 sequence (looked up): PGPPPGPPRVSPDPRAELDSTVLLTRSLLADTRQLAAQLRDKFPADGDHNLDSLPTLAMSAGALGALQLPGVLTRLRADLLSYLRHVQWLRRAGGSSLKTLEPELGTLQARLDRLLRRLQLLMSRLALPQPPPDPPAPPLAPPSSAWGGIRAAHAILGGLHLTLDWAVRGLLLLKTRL
Experiment: ELISA, IL-11 coated on plate
Quantity: binding result

Form field: reported binding result of 18B6 (antibody, V domains shown, Mouse hybridoma antibody purified on Protein A) VH: QVQLQQSGAELVKPGASVKLSCKASGYTFTNYYIYWMKQRPGQGLEWIGEINPSNGGTNFNEKFKSKATLTVDKSSSTAYMQLSSLTSEDSAVYFCSREEIHYGYDKGFAYWGQGTLVTVSA VL: NIMMTQSPSYLAVSAGEKVTMSCKSSQSVLNSSNQKNYLAWYQQKPGQSPKLLIYWASIRESGVPDRFTGSGSGTDFTLTISSVQAEDLAVYFCHQYFSSWTFGGGTRLEIK
binds

Also need 4A2 (antibody, V domains shown, Mouse hybridoma antibody purified on Protein A) VH: QVQLQQSGGELVRPGVSVKISCKGSGYKITDYAMHWVKQSHAESLEWIGVISSYYGDTSYNQKFKGKATMTVDISSSTAYMEIARLTSEDSAIYYCAIGLWDVGYFDYWGQGTTLTVSS VL: QIVLTQSPAIMSASPGEKVTMTCSASSSVSYMQWYQQKSGTSPKRWIYDTSKLASGVPARFSGSGSGTSYSLTISSMEAEDAATYYCQQWVSKAVTFGSGTKLEIK , thanks.
binds

Can you handle 16E12 (antibody, V domains shown, Mouse hybridoma antibody purified on Protein A; also called 鼠源16E12) VH: QVQLQQSGAELVKPGASVKLSCKASGYTFTSYYMYWVKQRPGQGLEWIGEINPSNGGTDFNEKFKNKATLTVDKSSSTAYMQLSSLTSEDSAVYYCTREEIHYGYDKGFAYWGQGTLVTVSA VL: NIMMTQSPSSLAVSAGEKVTMSCKSSQSVLHSSNQKNYLAWYQQKPGQSPKLLIYWASTRESGVPDRFTGSGSGTDFTLTISSIQAEDLAVYYCHQYFSLWTFGGGTKLEIK next?
binds

Reference for the values: patent CN113980129A
